meta.source: paper PMC5623054

biological target: RhoprOctβ2-R (Rhodnius prolixus, UniProt A0A291L8J3); construct: full ORF (447 amino acids; GenBank MF377526) transiently expressed in HEK293/CNG cells; assay: aequorin bioluminescence Ca2+ assay in transfected HEK293/CNG cells, dose-response (partial agonist); assay type: cell-based
Sequence (A0A291L8J3 1-447): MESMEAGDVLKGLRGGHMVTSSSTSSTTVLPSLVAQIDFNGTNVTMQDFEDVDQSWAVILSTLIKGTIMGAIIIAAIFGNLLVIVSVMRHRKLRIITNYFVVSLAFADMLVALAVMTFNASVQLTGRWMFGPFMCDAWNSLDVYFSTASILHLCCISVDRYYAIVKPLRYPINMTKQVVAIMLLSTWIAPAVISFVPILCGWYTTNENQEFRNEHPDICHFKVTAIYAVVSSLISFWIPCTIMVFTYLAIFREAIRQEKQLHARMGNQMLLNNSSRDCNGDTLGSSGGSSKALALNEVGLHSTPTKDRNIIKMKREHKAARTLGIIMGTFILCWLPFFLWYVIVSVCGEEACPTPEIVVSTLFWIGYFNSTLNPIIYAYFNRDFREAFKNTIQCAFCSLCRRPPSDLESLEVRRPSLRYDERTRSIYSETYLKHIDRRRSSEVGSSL
Endpoint Label: pEC50
API: returns pEC50 as number; meaning -log10 of concentration in mol/L.

Q) pEC50 for NCCc1ccc(O)cc1 ?
A) 5.41

---

molecular target: RhoprOctβ2-R (Rhodnius prolixus); construct: full ORF (447 amino acids; GenBank MF377526) transiently expressed in HEK293/CNG cells; test: aequorin bioluminescence Ca2+ assay in transfected HEK293/CNG cells, dose-response (full agonist); format: cell-based
Endpoint Label: EC50 (nM)
Please give a number only; it is taken to be in nM.

Q) Look up EC50: NCC(O)c1ccc(O)cc1 (stereo not shown)
A) 367
